Assay: CX4/LCG supramolecular tandem membrane assay, POPC vesicles
Type: in vitro ADME
Conditions: 30 µM peptide; 25 µM POPC⸧CX4/LCG-LUVs (inside 700 µM CX4, 500 µM LCG) in 10 mM Hepes, pH 7.0, 25 °C; fluorescence λexc 369/λem 502 nm; peptide at 60 s, TX-100/protamine at 600 s; fractional activity; n = 1
Protocol: Membrane Activity M easurements Vesicle preparation. 100 µ L of a solution of 25 mg/ml of POPC in chloroform or 200 µ L of a solution of 25 mg/ml of EYPC in chloroform was purged with nitrogen and dried overnight under hi gh vacuum. […] The fractional membrane activities, Y, were subsequently plotted against the peptide concentration, c, and analysed using the Hill equation (3) to obtain the effective molar concentration, EC50, and the Hill coefficient, n. […]
Where a SMILES comes first, the peptide text is derived from it.
outcome-measure: Y30µM, membrane activity, CX4/LCG assay

• CC(C)C[C@H](NC(=O)[C@H](CC(C)C)NC(=O)[C@H](CCCNC(=N)N)NC(=O)[C@@H](N)CC(C)C)C(=O)N[C@@H](CCCNC(=N)N)C(=O)N[C@@H](Cc1c[nH]c2ccccc12)C(N)=O [LRLLRW] (H-LRLLRW-NH2) = 0.53
• N=C(N)NCCC[C@H](NC(=O)[C@H](CCCNC(=N)N)NC(=O)[C@H](CCCNC(=N)N)NC(=O)[C@H](CCCNC(=N)N)NC(=O)[C@H](CCCNC(=N)N)NC(=O)[C@H](CCCNC(=N)N)NC(=O)[C@@H](N)CCCNC(=N)N)C(=O)O [Peptide R7, heptaarginine] = 0.17
• CC[C@H](C)[C@H](NC(=O)[C@H](CCCCN)NC(=O)[C@@H](NC(=O)[C@@H](N)CCC(N)=O)[C@@H](C)CC)C(=O)N[C@@H](Cc1c[nH]c2ccccc12)C(=O)N[C@@H](Cc1ccccc1)C(=O)N[C@@H](CCC(N)=O)C(=O)N[C@@H](CC(N)=O)C(=O)N[C@@H](CCCNC(=N)N)C(=O)N[C@@H](CCCNC(=N)N)C(=O)N[C@@H](CCSC)C(=O)N[C@@H](CCCCN)C(=O)N[C@@H](Cc1c[nH]c2ccccc12)C(=O)N[C@@H](CCCCN)C(=O)N[C@@H](CCCCN)C(=O)O (H-QIKIWFQNRRMKWKK-OH) = 0.49
• N=C(N)NCCC[C@H](NC(=O)[C@H](CCCNC(=N)N)NC(=O)[C@H](CCCNC(=N)N)NC(=O)[C@H](CCCNC(=N)N)NC(=O)[C@H](CCCNC(=N)N)NC(=O)[C@H](CCCNC(=N)N)NC(=O)[C@H](CCCNC(=N)N)NC(=O)[C@H](CCCNC(=N)N)NC(=O)[C@@H](N)CCCNC(=N)N)C(=O)O [Peptide R9, nonaarginine] = 0.11
• CC[C@H](C)[C@H](NC(=O)[C@H](CCCCN)NC(=O)[C@H](CCCCN)NC(=O)[C@H](C)NC(=O)[C@H](CC(C)C)NC(=O)[C@H](C)NC(=O)[C@H](C)NC(=O)[C@H](CC(C)C)NC(=O)[C@H](C)NC(=O)[C@H](CCCCN)NC(=O)[C@H](CC(C)C)NC(=O)[C@H](CC(N)=O)NC(=O)[C@@H](NC(=O)[C@H](CCCCN)NC(=O)CNC(=O)[C@H](CC(C)C)NC(=O)[C@H](CC(C)C)NC(=O)[C@H](Cc1ccc(O)cc1)NC(=O)CNC(=O)[C@H](C)N)[C@@H](C)CC)C(=O)N[C@@H](CC(C)C)C(=O)O = 0.88

Data provenance: paper PMC12851007
